- assay-system: insulin receptor (Homo sapiens, UniProt P06213)
- Sequence (P06213 28-758): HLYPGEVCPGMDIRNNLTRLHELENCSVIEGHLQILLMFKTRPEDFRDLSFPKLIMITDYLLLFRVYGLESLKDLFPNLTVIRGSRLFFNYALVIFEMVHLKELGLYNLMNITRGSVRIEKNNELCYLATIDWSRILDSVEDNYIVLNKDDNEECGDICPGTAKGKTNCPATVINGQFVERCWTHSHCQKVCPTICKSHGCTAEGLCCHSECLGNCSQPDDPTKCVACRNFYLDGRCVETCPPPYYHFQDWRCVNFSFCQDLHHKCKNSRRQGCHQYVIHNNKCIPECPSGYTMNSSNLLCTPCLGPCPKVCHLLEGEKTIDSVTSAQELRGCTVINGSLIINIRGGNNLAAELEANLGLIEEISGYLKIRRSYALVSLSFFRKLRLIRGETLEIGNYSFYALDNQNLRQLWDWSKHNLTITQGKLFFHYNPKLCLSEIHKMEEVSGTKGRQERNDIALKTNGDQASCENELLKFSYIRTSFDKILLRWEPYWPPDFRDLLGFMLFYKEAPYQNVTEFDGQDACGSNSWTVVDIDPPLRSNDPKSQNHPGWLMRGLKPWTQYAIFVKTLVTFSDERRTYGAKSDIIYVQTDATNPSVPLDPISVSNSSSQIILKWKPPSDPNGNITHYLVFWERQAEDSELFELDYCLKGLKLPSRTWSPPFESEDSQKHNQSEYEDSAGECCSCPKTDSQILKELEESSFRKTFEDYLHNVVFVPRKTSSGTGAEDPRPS
- Sequence (P06213 763-956): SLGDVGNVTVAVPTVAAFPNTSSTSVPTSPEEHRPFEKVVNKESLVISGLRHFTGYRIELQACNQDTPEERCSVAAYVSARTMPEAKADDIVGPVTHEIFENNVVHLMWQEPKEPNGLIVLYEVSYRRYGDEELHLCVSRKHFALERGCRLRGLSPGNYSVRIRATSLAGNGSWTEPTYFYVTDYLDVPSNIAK
- experiment-description: surface plasmon resonance
- Type: binding
pKd: −log10 of the molar value.
measure: pKd

Note to self: pKd recorded for O=c1c2ccccc2nc2n1CCc1c-2[nH]c2ccccc12 [Rut-0, Rutaecarpine] was ~4.85

###

- assay-system: insulin receptor (Homo sapiens, UniProt P06213)
- experiment-description: surface plasmon resonance
- Format: binding
measure: Kd

Note to self: Kd recorded for CN(C)C(=N)N=C(N)N [Metformin] was ~84 µM
